Data origin, for the record: paper PMC10786891

- Tgt: T1, EsCas13d, nuclease-dead (Eubacterium siraeum, UniProt B0MS50, R295A;H300A;R849A;H854A)
- T1 sequence: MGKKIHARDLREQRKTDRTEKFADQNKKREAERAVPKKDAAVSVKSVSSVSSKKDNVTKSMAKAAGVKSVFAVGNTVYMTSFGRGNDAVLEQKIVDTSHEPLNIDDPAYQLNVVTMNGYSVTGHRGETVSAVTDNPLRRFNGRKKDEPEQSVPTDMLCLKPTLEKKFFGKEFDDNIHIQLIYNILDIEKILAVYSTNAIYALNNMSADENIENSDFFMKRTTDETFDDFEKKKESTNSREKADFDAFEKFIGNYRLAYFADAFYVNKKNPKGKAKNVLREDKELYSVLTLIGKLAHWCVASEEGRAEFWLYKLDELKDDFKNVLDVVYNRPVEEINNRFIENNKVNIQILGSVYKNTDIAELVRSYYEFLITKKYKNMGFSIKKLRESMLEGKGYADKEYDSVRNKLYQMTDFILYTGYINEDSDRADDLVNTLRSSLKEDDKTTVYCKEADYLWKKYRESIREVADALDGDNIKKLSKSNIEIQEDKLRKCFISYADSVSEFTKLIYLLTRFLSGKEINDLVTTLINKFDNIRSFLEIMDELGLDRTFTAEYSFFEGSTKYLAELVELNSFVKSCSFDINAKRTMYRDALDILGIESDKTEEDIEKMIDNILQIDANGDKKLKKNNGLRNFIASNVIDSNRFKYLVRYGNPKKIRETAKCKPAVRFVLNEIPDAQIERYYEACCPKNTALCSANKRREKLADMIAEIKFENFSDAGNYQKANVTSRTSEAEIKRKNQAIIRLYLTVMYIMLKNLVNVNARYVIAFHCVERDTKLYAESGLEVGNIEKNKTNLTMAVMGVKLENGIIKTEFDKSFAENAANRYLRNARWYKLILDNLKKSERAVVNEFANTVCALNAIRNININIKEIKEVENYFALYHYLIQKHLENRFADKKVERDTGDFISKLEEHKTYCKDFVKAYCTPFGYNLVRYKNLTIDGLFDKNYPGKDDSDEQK
- Measurement Notes: crRNA (strand 1, pre-loaded); Mg2+; 40 mM Tris-HCl pH 7.5, 150 mM NaCl, 6 mM MgCl2, 1 mM DTT, 0.1% Tween-20, 0.2 mg/ml BSA; 25 C; 10 min per concentration, then washed
- Experimental Parameters: tags: His6-TwinStrep-SUMO cleaved; N-terminal SNAP kept (SNAP-Surface 488); label: 3' end held by stalled T7 RNA polymerase
Endpoint Label: pKd
Hey, just a heads up that pKd is the negative log base 10 of the concentration in molar.

Worked examples follow.
{"Binder": "target 1 MT 5'PFS GUG 3'PFS CAC (mixed) RNA 1: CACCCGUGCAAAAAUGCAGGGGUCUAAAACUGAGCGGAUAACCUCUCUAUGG RNA 2: GGGAAUGGAUCCACAUCUACGAAUUCGUGCCAUAGAGAGGUUAUCCGCUCACACAGAUCGGAAGAGCACACGU", "pKd": 7.58}
{"Binder": "target 3 del22 (mixed) RNA 1: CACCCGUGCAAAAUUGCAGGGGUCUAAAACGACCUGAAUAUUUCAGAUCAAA RNA 2: GGGAAUGGAUCCACAUCUACGAAUUCGUUUUGAUCUGAAAUAUUCAGGUCUGCAGAUCGGAAGAGCACACGU", "pKd": 7.99}
{"Binder": "target 2 MT 5'PFS UGC 3'PFS UAA (mixed) RNA 1: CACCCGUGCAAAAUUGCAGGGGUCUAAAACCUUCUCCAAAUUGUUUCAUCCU RNA 2: GGGAAUGGAUCCACAUCUACGAAUUCUGCAGGAUGAAACAAUUUGGAGAAGUAAAGAUCGGAAGAGCACACGU", "pKd": 7.77}

Attention now shifts to the item below.
Query target 3 A5G,U8A (mixed) RNA 1: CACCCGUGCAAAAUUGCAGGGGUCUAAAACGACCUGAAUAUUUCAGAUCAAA RNA 2: GGGAAUGGAUCCACAUCUACGAAUUCGUUUUUGAUCUGAAAUAAUCGGGUCUGCAGAUCGGAAGAGCACACGU yields pKd of 7.09
